Assay: solvent given as SMILES
Conditions: in ClC(Cl)Cl
property-measured: absorption maximum (nm)

> print(dat)
                         chemical.structure   property.measured  endpoint.result
1  CCCCCCn1c2ccccc2c2cc(/C=C/c3cc(=O)oc4cc(C)ccc34)ccc21  absorption maximum              393
2       c1cc2ccc3sc4ccc5cccc6c(c1)c2c3c4c56  absorption maximum              412
3  F[B-]1(F)OC(c2ccc(C(F)(F)F)cc2)=Cc2c3ccccc3cc[n+]21  absorption maximum            398.5

###

Experiment: solvent given as SMILES
Settings: in ClCCl
property-measured: absorption maximum (nm)

compound	property-measured	readout-units	endpoint-result
Cc1nc(-c2cc(F)ccc2O)n2c1CCCC2	absorption maximum	nm	326

P. c1ccc(-n2c3ccccc3c3cc(-n4ccc5cc(-c6ccc(C7(c8ccccc8)c8ccccc8-c8ccccc87)cc6)ccc54)ccc32)cc1
Q. Cc1ccc(C#Cc2c3cc4ccccc4cc3c(C#C[Si](C(C)C)(C(C)C)C(C)C)c3cc4ccccc4cc23)cc1
Problem: Given the entries P and Q , determine which has the lower reported absorption maximum. // output: label of the selected item P

I. c1ccc2c(c1)c1ccccc1c1[nH]c(-c3ccc(-c4nc5c6ccccc6c6ccccc6c5[nH]4)cc3)nc21
II. CC1=CC(C)=[N+]2C1=C(c1ccc(Br)cc1)c1c(C)cc(/C=C/c3ccc[nH]3)n1[B-]2(F)F
Between I and II , whose recorded absorption maximum is greater? Identify your selection by its label. II

I. COc1cc(/C=C/c2nc(N3CCOCC3)c3c([n+]2[O-])CCCC3)cc(OC)c1OC
II. COc1ccc(C#Cc2c3cc4ccccc4cc3c(C#Cc3ccc(OC)cc3)c3cc4ccccc4cc23)cc1
// returns I or II , whichever has the lower absorption maximum Refer to your chosen item by its label in the answer. I

###

Assay: solvent given as SMILES
Settings: in C1CCOC1
property-measured: absorption maximum (nm)

> print(dat)
                                   molecule  endpoint.result
1  N#C/C(=C\c1ccc(C=C(c2ccccc2)c2ccccc2)cc1)c1ccccc1              366
2  c1ccc(C2CCN3COc4c5ccccc5c5c6c7c(c2c3c46)C(c2ccccc2)CCN7CO5)cc1 (stereo not drawn)              405
3  CCCCCCOc1ccc(-c2cnc(-c3nnc(-c4ccc(OCCCCCC)cc4)o3)o2)cc1              319

###

Experiment: solvent given as SMILES
Conditions: in ClCCl
property-measured: absorption maximum (nm)

Answered cases to consult:
molecule	readout-units	endpoint-result
O=Cc1ccc(-c2cccc(-c3nc4ccccc4s3)c2O)s1	nm	370
CCC(CC)COC1=CC2=C3c4cc(OCC(CC)CC)c(-c5cccs5)n4[B-](F)(F)[n+]4c3n(c3cc(C(C)(C)C)ccc34)[B-](F)(F)[N+]2=C1c1cccs1	nm	791
COCCOCCOCCOCC(COCCOCCOCCOC)Oc1cc(/C=C/c2ccc(/C=C(\C#N)c3ccccc3)cc2)c(OC(COCCOCCOCCOC)COCCOCCOCCOC)cc1/C=C/c1ccc(/C=C(\C#N)c2ccccc2)cc1	nm	433
c1ccc(-c2cc3c(-c4ccccc4)c4cccc5c(-c6ccccc6)cc6c(-c7ccccc7)c7cccc2c7c3c6c54)cc1	nm	454
CCCCN1C(=O)C2=C(c3ccc(-c4ccccc4)cc3)NC(=O)C2=C1c1ccc(-c2ccccc2)cc1	nm	485
C[P+]1(c2ccccc2)c2ccccc2-c2sc3ccccc3c21 (centres undefined)	nm	340
CN(C)c1ccc(/C=C/c2cc[n+](CCCOCC(COCCC[n+]3ccc(/C=C/c4ccc(N(C)C)cc4)cc3)(COCCC[n+]3ccc(/C=C/c4ccc(N(C)C)cc4)cc3)COCCC[n+]3ccc(/C=C/c4ccc(N(C)C)cc4)cc3)cc2)cc1	nm	489
CCCCCCCCCCCCN1C(=O)c2c(c3ccc4cc(-c5ccc(C#N)cc5)c(OC)cc4c3c3c2ccc2cc(-c4ccc(C#N)cc4)c(OC)cc23)C1=O	nm	427
CCCCC(CC)COc1ccc2nc(-c3ccc(-c4cccs4)s3)sc2c1 (centres undefined)	nm	382
CCn1c2ccccc2c2cc(/C=C(\C#N)c3ccccc3)ccc21	nm	374

A. Cc1ccc([N+]2=c3c4n(c5ccccc35)[B-](F)(F)[N+](c3ccc(C)cc3)=c3c=4n(c4ccccc34)[B-]2(F)F)cc1
B. F[B-]12OC(c3ccccc3)=Nc3cccc([n+]31)N=C(c1ccccc1)O2
Identify the entry with the larger absorption maximum. Options: A and B Answer by stating the label of the chosen item. A
(A: 743 nm, B: 394 nm)

src = the Deep4Chem optical property database
